measuredOn: human B1 (Homo sapiens)
Sequence (P46663 whole entry): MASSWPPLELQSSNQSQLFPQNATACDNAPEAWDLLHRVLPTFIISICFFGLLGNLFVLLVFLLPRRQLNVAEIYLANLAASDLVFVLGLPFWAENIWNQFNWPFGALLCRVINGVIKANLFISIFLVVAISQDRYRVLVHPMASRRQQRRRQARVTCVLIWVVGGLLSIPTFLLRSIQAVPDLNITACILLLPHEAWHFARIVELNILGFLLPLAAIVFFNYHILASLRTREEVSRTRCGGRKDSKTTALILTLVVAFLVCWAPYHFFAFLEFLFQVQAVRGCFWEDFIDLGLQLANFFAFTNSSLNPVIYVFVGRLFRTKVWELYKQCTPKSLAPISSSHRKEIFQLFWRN
testSummary: Calcium flux assay for Bradykinin B1 antagonist, CHO-K1 cell line expressing human B1
cond: CHO-K1 cells expressing human B1, agonist Lys-(Des-Arg)-Bradykinin, read-out: Potency (IC50 value against human B1)
pIC50: −log10 of the molar value. Where a name gives a salt, the structure may show the parent alone.
measuredMetric: pIC50

As a guide, the following entries are already answered.
COc1cc(C)c(S(=O)(=O)N(Cc2nc(C(=O)N3CCN(C4CCN(C)CC4)CC3)co2)C2CC2)c(C)c1 [Ex 165] ... > 8.00
COc1cc(C)c(S(=O)(=O)N(Cc2cc(C(=O)N(C)CCc3ccc(C4=NCCN4)cc3)co2)C2CCC2)c(C)c1 [Ex 51] ... > 8.00
COc1cc(C)c(S(=O)(=O)N(C)Cc2nc(C(=O)N(C)Cc3ccc(C[N+]4([O-])CCCC4)cc3)co2)c(C)c1 [Ex 159, trifluoroacetate] ... 6.00 to 7.00

// next entry
Lab book: pIC50 of COc1cc(C)c(S(=O)(=O)N(C)Cc2nc(C(=O)NCc3cccc(CN4CCCC4)c3)co2)c(C)c1 [Ex 74] noted as > 8.00

Numbers sourced from patent US8623859B2.
